Tested on: Hepatotoxicity
# if measured HepSE_Combined Scores < 1: condition met  # else: condition not met

> print(dat)
                                   molecule                cat
1          C1N2CN3CN1CN(C2)C3 [METHENAMINE]      condition met
2  CC(=O)[C@H]1CC[C@H]2[C@@H]3CCC4=CC(=O)CC[C@]4(C)[C@H]3CC[C@]12C [PROGESTERONE]  condition not met
3  C=CCC1(C(C)CCC)C(=O)NC(=O)NC1=O (centres undefined) [SECOBARBITAL]      condition met
4  COc1c(N2C[C@@H]3CCCN[C@@H]3C2)c(F)cc2c(=O)c(C(=O)O)cn(C3CC3)c12 [MOXIFLOXACIN]  condition not met
5  CC(C)(C)NCC(O)c1cc(O)cc(O)c1 (centres undefined) [TERBUTALINE]      condition met
6  CCc1nn(CCCN2CCN(c3cccc(Cl)c3)CC2)c(=O)n1CCOc1ccccc1 [NEFAZODONE]  condition not met
7  Cc1nc(Nc2ncc(C(=O)Nc3c(C)cccc3Cl)s2)cc(N2CCN(CCO)CC2)n1.O [DASATINIB]  condition not met

---

Below are HepSE_hepatitis values recorded for Hepatotoxicity.
observedProperty: HepSE_hepatitis

> print(dat)
                                   molecule  reportedvalue
1  CS(=O)(=O)c1ccc(C2=C(c3ccccc3)C(=O)OC2)cc1              1
2                CS(=O)(=O)OCCCCOS(C)(=O)=O              1
3  O=C1C(CC[S+]([O-])c2ccccc2)C(=O)N(c2ccccc2)N1c1ccccc1 (stereo not given)              0
4              Cn1c(=O)c2[nH]cnc2n(C)c1=O.O              0
5                        C1N2CN3CN1CN(C2)C3              0

---

System: Hepatotoxicity
observedProperty: HepSE_hepatic failure

> print(dat)
                                   compound  reportedvalue
1  COc1cc2c(cc1OC)C(=O)C(CC1CCN(Cc3ccccc3)CC1)C2 (centres undefined)              0
2  CC(C)(C)C(=O)OCOP(=O)(COCCn1cnc2c(N)ncnc21)OCOC(=O)C(C)(C)C              1
3  CCCc1c2oc(C(=O)[O-])cc(=O)c2cc2c(=O)cc(C(=O)[O-])n(CC)c12.[Na+].[Na+] [NEDOCROMIL SODIUM]              0
4       c1cnc2cc3c(cc2n1)[C@@H]1CNC[C@H]3C1              0

---

Tested on: Hepatotoxicity
The entries below are paired with their reported HepSE_cholecystitis.
observedProperty: HepSE_cholecystitis

> print(dat)
                                    compound    testedsystem     observedproperty  reportedvalue
 1  C=C(c1ccc(C(=O)O)cc1)c1cc2c(cc1C)C(C)(C)CCC2(C)C  Hepatotoxicity  HepSE_cholecystitis              0
 2    OC[C@@H](O)[C@@H](O)[C@H](O)[C@H](O)CO  Hepatotoxicity  HepSE_cholecystitis              0
 3  COC(=O)C1=C(C)NC(C)=C(C(=O)OC)C1c1ccccc1[N+](=O)[O-]  Hepatotoxicity  HepSE_cholecystitis              0
 4          C[C@H](CS)C(=O)N1CCC[C@H]1C(=O)O  Hepatotoxicity  HepSE_cholecystitis              0
 5  CO/N=C(\C(=O)N[C@@H]1C(=O)N2C(C(=O)O)=C(CSc3nc(=O)c(=O)[nH]n3C)CS[C@H]12)c1csc(N)n1  Hepatotoxicity  HepSE_cholecystitis              0
 6       Cc1cc2c(s1)Nc1ccccc1N=C2N1CCN(C)CC1  Hepatotoxicity  HepSE_cholecystitis              0
 7  CCCC(C)C1(CC)C(=O)NC(=O)NC1=O (stereo not drawn)  Hepatotoxicity  HepSE_cholecystitis              0
 8  COc1ccc(CCN(C)CCCC(C#N)(c2ccc(OC)c(OC)c2)C(C)C)cc1OC (stereo not drawn)  Hepatotoxicity  HepSE_cholecystitis              0
 9                           NNC(=O)c1ccncc1  Hepatotoxicity  HepSE_cholecystitis              0
10  COc1ccccc1Oc1c(NS(=O)(=O)c2ccc(C(C)(C)C)cc2)nc(-c2ncccn2)nc1OCCO  Hepatotoxicity  HepSE_cholecystitis              0
11  C[C@]12COC(=O)C[C@@H]1CC[C@@H]1[C@@H]2CC[C@@]2(C)[C@H]1CC[C@]2(C)O  Hepatotoxicity  HepSE_cholecystitis              0
12  Cc1nc2n(c(=O)c1CCN1CCC(c3noc4cc(F)ccc34)CC1)CCCC2O (stereo not drawn)  Hepatotoxicity  HepSE_cholecystitis              0
13  CC[C@@]1(O)C(=O)OCc2c1cc1n(c2=O)Cc2cc3c(CN(C)C)c(O)ccc3nc2-1  Hepatotoxicity  HepSE_cholecystitis              0
14  O=C1CCc2ccc(OCCCCN3CCN(c4cccc(Cl)c4Cl)CC3)cc2N1  Hepatotoxicity  HepSE_cholecystitis              1
15  NC(=O)N1c2ccccc2C=Cc2ccccc21 [CARBAMAZEPINE]  Hepatotoxicity  HepSE_cholecystitis              0
16  CC#C[C@]1(O)CC[C@H]2[C@@H]3CCC4=CC(=O)CCC4=C3[C@@H](c3ccc(N(C)C)cc3)C[C@@]21C  Hepatotoxicity  HepSE_cholecystitis              0
17                 CN(C)C(=O)Oc1ccc[n+](C)c1  Hepatotoxicity  HepSE_cholecystitis              0
18  NCC(CC(=O)O)c1ccc(Cl)cc1 (stereo not drawn)  Hepatotoxicity  HepSE_cholecystitis              0

---

Measured HepSE_hepatic failure, listed per entry.
System: Hepatotoxicity
observedProperty: HepSE_hepatic failure

> print(dat)
                                   molecule    testedsystem       observedproperty  reportedvalue
1  CC(C)(O/N=C(\C(=O)N[C@@H]1C(=O)N2C(C(=O)[O-])=C(C[n+]3ccccc3)CS[C@H]12)c1csc(N)n1)C(=O)O  Hepatotoxicity  HepSE_hepatic failure              0
2  C[C@]12CCC(=O)C=C1CC[C@H]1[C@@H]3CC[C@](O)(C(=O)CO)[C@@]3(C)C[C@H](O)[C@@]12F  Hepatotoxicity  HepSE_hepatic failure              0
3  Clc1ccc(COC(Cn2ccnc2)c2ccc(Cl)cc2Cl)c(Cl)c1 (stereo not drawn)  Hepatotoxicity  HepSE_hepatic failure              0

---

In what follows, each item is paired with its HepSE_jaundice for Hepatotoxicity.
observedProperty: HepSE_jaundice

> print(dat)
                                    molecule  reportedvalue
 1  Nc1nc2c(ncn2COCCO)c(=O)[nH]1 [ACYCLOVIR]              1
 2  CC1=C(C/C=C(\C)CCC[C@H](C)CCC[C@H](C)CCCC(C)C)C(=O)c2ccccc2C1=O [PHYTONADIONE]              0
 3  CCN(CC)CCNC(=O)c1cc(Cl)c(N)cc1OC [METOCLOPRAMIDE]              1
 4  CN(C)CCc1c[nH]c2ccc(Cn3cncn3)cc12 [RIZATRIPTAN]              0
 5  CC(=O)Nc1nnc(S(N)(=O)=O)s1 [ACETAZOLAMIDE]              1
 6  CCCCC1=NC2(CCCC2)C(=O)N1Cc1ccc(-c2ccccc2-c2nnn[nH]2)cc1 [IRBESARTAN]              1
 7  O=C(O[C@@H]1C[C@@H]2C[C@H]3C[C@H](C1)N2CC3=O)c1c[nH]c2ccccc12 [DOLASETRON]              0
 8  CCN1CC(CCN2CCOCC2)C(c2ccccc2)(c2ccccc2)C1=O (stereo not given) [DOXAPRAM]              0
 9  CCOC(=O)[C@H](CCc1ccccc1)N[C@@H](C)C(=O)N1CCC[C@H]1C(=O)O              1
10  CCN(CC)CCCC(C)Nc1ccnc2cc(Cl)ccc12 (stereo not given) [CHLOROQUINE]              0
11     FC(F)OC(F)C(F)(F)F (stereo not given)              0
12                          [Ca+2].[H-].[H-]              0
13  N[C@@H](Cc1cc(I)c(Oc2cc(I)c(O)c(I)c2)c(I)c1)C(=O)O [LEVOTHYROXINE]              0
14  Nc1ccn([C@@H]2O[C@H](CO)[C@@H](O)C2(F)F)c(=O)n1 [GEMCITABINE]              0
15  O=P(O)(O)C(Sc1ccc(Cl)cc1)P(=O)(O)O [TILUDRONIC ACID]              0
16  CCOC(=O)[C@H](CCc1ccccc1)N[C@H]1CCCN2CCC[C@@H](C(=O)O)N2C1=O [CILAZAPRIL]              0
17  CCC[C@@]1(CCc2ccccc2)CC(O)=C([C@H](CC)c2cccc(NS(=O)(=O)c3ccc(C(F)(F)F)cn3)c2)C(=O)O1              1
18  CC(C(=O)O)c1ccc(C(=O)c2cccs2)cc1 (stereo not given) [SUPROFEN]              0
19                CNCCc1ccccn1 [BETAHISTINE]              0
20  CNC(=O)c1c(I)c(NC(C)=O)c(I)c(C(=O)O)c1I [IOTHALAMIC ACID]              0
